Give measured ETS1 binding intensity for each item. Keep answers brief.
Target: ETS1 (UniProt P14921)
Sequence: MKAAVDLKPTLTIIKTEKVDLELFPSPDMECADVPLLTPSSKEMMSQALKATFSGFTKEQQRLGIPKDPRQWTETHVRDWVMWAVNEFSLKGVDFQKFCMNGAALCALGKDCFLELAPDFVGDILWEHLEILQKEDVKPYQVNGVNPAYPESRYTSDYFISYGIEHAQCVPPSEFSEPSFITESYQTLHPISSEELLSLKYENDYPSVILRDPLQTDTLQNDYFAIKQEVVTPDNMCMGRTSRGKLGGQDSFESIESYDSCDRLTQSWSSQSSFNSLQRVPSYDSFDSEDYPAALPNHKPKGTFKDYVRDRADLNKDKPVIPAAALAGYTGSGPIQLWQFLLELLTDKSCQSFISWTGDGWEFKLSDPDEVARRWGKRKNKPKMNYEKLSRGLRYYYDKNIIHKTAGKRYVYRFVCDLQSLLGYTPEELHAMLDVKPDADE
Test: ETS1 binding intensity (PBM fluorescence), ETS1 alone (arbitrary fluorescence units); higher = stronger binding
Details: ETS1 concentration 1 nM; RUNX1 concentration 0 nM
Keep it simple and answer with nothing but the number.

Briefly, ETS1 binding intensity measured for GTTCTTATCCTGTGGCTCGTTTGTGGTTACTGACAT : 425

Briefly, ETS1 binding intensity measured for CACCCAAGGATATGCTTTTTTTTGGCAAGCCACATC : 430

Briefly, ETS1 binding intensity measured for CCTTCCTTCCTGCTGTGTACGTTGTGGTCACAGCAC : 419

Briefly, ETS1 binding intensity measured for GGTAAAGCAACAGGATGTGGGTGTCTGACTTACAAT : 4330

Briefly, ETS1 binding intensity measured for GTCTTGTACCCTAGAGGATGTGGTAGCCCTAAATAA : 1060

Briefly, ETS1 binding intensity measured for ACCTTCGCCGGATGCTGTGGCTGAAACCACAGCATT : 2480

Briefly, ETS1 binding intensity measured for ACGTCTTTATTTATCCTGTGGCTTCCCGACCCCCAC : 537

Briefly, ETS1 binding intensity measured for GGCAAACAGGAAACACTCCCAGGGCTGTGGGCTCCT : 1550

Briefly, ETS1 binding intensity measured for AAAAGGCACCAGGAAATGACAGCACCGCAGCACGCC : 1290

Briefly, ETS1 binding intensity measured for TGAGCCCTACTTCCGGTGGTGCTGTGGTCTGCCCCT : 10700

Briefly, ETS1 binding intensity measured for AAGGGAGCCGCCCGGAAACCGCGCGGCAAAGATGCC : 1560

Briefly, ETS1 binding intensity measured for AACTTCCTCCGCGCGGGGCCACTGCTACCACAAAGG : 373
